Task for the reader: assign each of the following compounds its reported GI50.
- System: SK-OV-3
- Assay notes: NCI tumour cell line growth inhibition, 48 h
Calls of active or inactive are those of the source. No stated cut-off is given here; in the data, active = GI50 up to about 1.1 µM and inactive = higher.

Give GI50 for each listed item.
1. N#Cc1c(C#N)c(SSc2c(C#N)c(C#N)c(N)n2-c2cccc3ccccc23)n(-c2cccc3ccccc23)c1N
2. Cc1cccc(NC(=O)CC#N)c1Cl
3. O=c1c2cc(O)c(O)cc2oc2cc(O)c(C3OC(CO)C(O)C(O)C3O)c(O)c12 (configuration not stated)
4. COc1ccc(S(=O)(=O)N/N=C\c2cc([N+](=O)[O-])cc(I)c2O)c(OC)c1OC
5. ON=C1CCC(c2ccccc2)CC1 (configuration not stated)
6. O=C(O)c1cc2ccccc2c(/N=N/c2ccc(S(=O)(=O)O)cc2)c1O

Return:
1: 24.1 µM (inactive); 2: > 100 µM (inactive); 3: > 100 µM (inactive); 4: 25 µM (inactive); 5: > 100 µM (inactive); 6: > 100 µM (inactive)

Enquiry: Fill in the blank: the reported GI50 of CCOC(=O)CC(N1CC1)N1CC1 is ____.
Return: > 10 µM (inactive)

----------
- Tested on: SK-MEL-2
- Assay notes: NCI tumour cell line growth inhibition, 48 h
Calls of active or inactive are those of the source. Rule as the data show it: active = GI50 up to about 1.1 µM and inactive = higher.
Parameter measured: GI50

Known results for compounds:
# Compound, Tested system, GI50
rows = [
    ("COc1cc2cc(OC(C)=O)c3cc4c(cc3c2c(OC)c1OC)OCO4", "SK-MEL-2", "> 100 µM (inactive)"),
    ("Cc1c(C)c2ccc(OCC(O)COC(C)C)c(C)c2oc1=O (configuration not stated)", "SK-MEL-2", "20.1 µM (inactive)"),
    ("CCCCSN1C(=O)c2ccccc2C1=S", "SK-MEL-2", "34.4 µM (inactive)"),
    ("CC(C)NC(=O)OCc1c(COC(=O)NC(C)C)c(-c2ccc(Cl)c(Cl)c2)n2c1CCC2", "SK-MEL-2", "44.2 µM (inactive)"),
    ("COc1c(C)c(O)c2c(=O)cc(-c3ccccc3)oc2c1C", "SK-MEL-2", "> 100 µM (inactive)"),
]

Your task in this section: give GI50 for each listed record.
1. CCC1C(C#N)=C(O)NC(O)=C1C#N
2. Cc1ccc(S(=O)(=O)CC(=O)CC(=O)C(=O)Nc2cccc(C(F)(F)F)c2)cc1

Return:
> 100 µM (inactive)
> 100 µM (inactive)

----------
- Test system: MCF7
- Assay notes: NCI tumour cell line growth inhibition, 48 h
The source made the active and inactive calls. Cut-off read from the data, not from the text of the source: active = GI50 up to about 1.1 µM and inactive = higher.
Use one of these outcomes when replying: T (active), F (inactive)

Examples with answers:
# Molecule, Group label
measured = [
    ("Nc1nncs1", "F"),
    ("Cn1cc(NC(=O)c2cc(NC(=O)CNC(=N)N)cn2C)cc1C(=O)NCCC(=N)N [NETROPSIN CHLORIDE]", "F"),
    ("COc1cc2cccc(N)c2cc1OC", "F"),
    ("O=C(Nc1ccc(Cl)cc1)NS(=O)(=O)c1ccc2c(c1)CCC2", "F"),
    ("CNc1ccc(C(=O)CC(O)CCC(C)C2OC(=O)CC(O)CC(=O)CC(O)CC(O)CC(O)CC(O)CC3(O)CC(O)C(C(=O)N4CCOCC4)C(CC(OC4OC(C)C(O)C(N)C4O)\\C=C/C=C\\C=C/C=C/C=C/C=C\\C=C/C2C)O3)cc1 (configuration not stated)", "T"),
]

Enquiry: How did this test come out for C=C(C)C1=CCC[C@]2(C1)N=C(OC)[C@@H](C(C)C)N=C2OC ?
Return: F

Enquiry: For this molecule, state the assay outcome: Nc1nc2[nH]cnc2c(=S)[nH]1
Return: T
